Answer each item with its documented AUC(0-t).
# assay.method.text: Pharmacokinetics assay in rats (intragastric and tail vein administration, plasma LC/MS/MS)
# Type: in vivo
# condition.details: both sexes, Sprague-Dawley (SD), rat, plasma, po, 10 mg/kg, intragastric 10 mg/kg, read-out: AUC0-t
# Protocol: The rats were used as experimental animals. […] The pharmacokinetic behavior, characteristics and the oral absolute bioavailability of the compounds in the present invention were studied and evaluated in rats. […] 28 healthy adult SD rats, male and female in half, were divided into 7 groups (4 rats in each group). After an overnight fast, the compound of Example 1, at a dose of 10 mg/kg (calculated by the base part), at a volume of 10 mL/kg, was administered intragastrically or injected into the tail vein. […]
Counter-ions that a name gives are not always drawn.
Express your answer in ng·h/mL, writing the number without its unit.

Request: Please look at this compound and report its AUC(0-t): Cc1c(/C=C2\C(=O)Nc3ccc(F)cc32)[nH]c2c1C(=O)N(C[C@H](O)CN1CCOCC1)CCC2 [Example 4, mesylate]
Response: 7300

Request: Please look at this compound and report its AUC(0-t): `Cc1c(/C=C2\C(=O)Nc3ccc(F)cc32)[nH]c2c1C(=O)N(C[C@H](O)CN1CCOCC1)CCC2.Cl`
Response: 4070

Request: Please look at this compound and report its AUC(0-t): `CC(O)C(=O)O.Cc1c(/C=C2\C(=O)Nc3ccc(F)cc32)[nH]c2c1C(=O)N(C[C@H](O)CN1CCOCC1)CCC2`
Response: 5900

Request: Please look at this compound and report its AUC(0-t): `Cc1c(/C=C2\C(=O)Nc3ccc(F)cc32)[nH]c2c1C(=O)N(C[C@H](O)CN1CCOCC1)CCC2.O=C(O)C[C@H](O)C(=O)O`
Response: 4900
